# Test system: Human recombinant MMP1 (Homo sapiens, UniProt P03956)
# Sequence (P03956 100-469): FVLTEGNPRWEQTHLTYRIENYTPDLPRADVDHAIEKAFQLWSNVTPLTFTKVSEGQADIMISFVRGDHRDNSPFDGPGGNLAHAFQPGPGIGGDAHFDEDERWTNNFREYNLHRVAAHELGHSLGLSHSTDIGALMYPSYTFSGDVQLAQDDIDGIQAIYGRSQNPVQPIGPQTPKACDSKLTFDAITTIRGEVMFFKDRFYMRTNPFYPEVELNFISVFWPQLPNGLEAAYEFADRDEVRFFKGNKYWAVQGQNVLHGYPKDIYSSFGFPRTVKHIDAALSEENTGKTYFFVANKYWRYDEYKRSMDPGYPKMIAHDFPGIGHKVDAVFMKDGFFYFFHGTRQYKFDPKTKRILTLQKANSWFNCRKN
# Experiment: MMP1 (Collagenase-1) inhibition, 14C collagen release
# Setup conditions: 35° C., 5 hours; read-out: MMP-1 inhibitory activity, IC50
Recorded pIC50 by entry
The meaning of pIC50 here: minus log10 of the concentration in molar units.

Worked cases, answers included:
• CC1c2c([N+](=O)[O-])cc(C(C)(C)C)c(O)c2C(=O)C2=C(O)C3(O)C(=O)C(C(N)=O)=C(O)C(N(C)C)C3C(O)C21 (stereo not drawn) [Compound 38] = 3.64
• CC(=O)Nc1ccc2c(c1O)C(=O)C1=C(O)C3(O)C(=O)C(C(N)=O)=C(O)C(N(C)C)C3C(O)C1C2C (stereo not drawn) [Compound 16] = 3.34
• CC1c2c(N)cc([N+](=O)[O-])c(O)c2C(=O)C2=C(O)C3(O)C(=O)C(C(N)=O)=C(O)C(N(C)C)C3C(O)C21 (stereo not drawn) [Compound 14] = 3.55

Proceed to the following item.
Qu. Could you share which pIC50 value was measured for CCCCN(CCCC)c1ccc(O)c2c1C(C)C1C(=C(O)C3(O)C(=O)C(C(N)=O)=C(O)C(N(C)C)C3C1O)C2=O (stereo not drawn) [Compound 17] ?
Ans. 3.91

----------
Entries and their log10 of IC50 values follow.
# Test system: Human recombinant MMP14 (Homo sapiens, UniProt P50281)
# Experiment: MMP14 (MTI-MMP) inhibition, 14C collagen release
# Setup conditions: 35° C., 15 hours; read-out: MMP-14 inhibitory activity, IC50
On a log10 scale: recorded IC50, unit µM.

Qu. Which log10 of IC50 is reported for this compound? CC1c2c(N(CCC(C)(C)C)CCC(C)(C)C)ccc(O)c2C(=O)C2=C(O)C3(O)C(=O)C(C(N)=O)=C(O)C(N(C)C)C3C(O)C21 (stereo not drawn)
Ans. 1.95

Qu. Likewise for CC(=O)Nc1cc(N=[N+]=[N-])c(O)c2c1C(C)C1C(=C(O)C3(O)C(=O)C(C(N)=O)=C(O)C(N(C)C)C3C1O)C2=O (stereo not drawn) ?
Ans. 2.63

Qu. Same again, this time with CC1c2c([N+](=O)[O-])cc(C(C)(C)C)c(O)c2C(=O)C2=C(O)C3(O)C(=O)C(C(N)=O)=C(O)CC3C(O)C21 (stereo not drawn)
Ans. 1.46

Qu. Follow-up item: `C[C@H]1c2c(N(C)C)cc([N+]#N)c(O)c2C(=O)C2=C(O)[C@]3(O)C(=O)C(C(N)=O)=C(O)[C@@H](N(C)C)[C@@H]3[C@@H](O)[C@@H]21`
Ans. 2.77

Qu. And CN(C)c1ccc(O)c2c1CC1CC3CC(O)=C(C(N)=O)C(=O)C3(O)C(O)=C1C2=O (stereo not drawn) ?
Ans. 2.61

Qu. Also CC(=O)Nc1cc([N+](=O)[O-])c(O)c2c1C(C)C1C(=C(O)C3(O)C(=O)C(C(N)=O)=C(O)C(N(C)C)C3C1O)C2=O (stereo not drawn) ?
Ans. 2.66

----------
Catalogue of percent inhibition, MDA-MB-231 (Breast) values
# System: MDA-MB-231 human breast cancer cells
# Experiment: Membrane Invasion Culture System (MICS) chemo-invasion assay
# Type: cell-based
# Setup conditions: 1 ug/mL; 24 hours; + = increased invasiveness

* CN(C)c1ccc(O)c2c1CC1CC3CC(O)=C(C(N)=O)C(=O)C3(O)C(O)=C1C2=O (stereo not drawn) | +8%

Qu. Entry under review: CC1c2c([N+](=O)[O-])cc(C(C)(C)C)c(O)c2C(=O)C2=C(O)C3(O)C(=O)C(C(N)=O)=C(O)CC3C(O)C21 (stereo not drawn) . Reported percent inhibition, MDA-MB-231 (Breast)?
Ans. 9%

Qu. Field entry: CC(=O)Nc1cc(N(C)C)c2c(c1O)C(=O)C1=C(O)C3(O)C(=O)C(C(N)=O)=C(O)C(N(C)C)C3CC1C2 (stereo not drawn)
Ans. +10%

Qu. Repeat for the following compound: CC1c2ccc([N+]#N)c(O)c2C(=O)C2=C(O)C3(O)C(=O)C(C(N)=O)=C(O)CC3C(O)C21.O=S(=O)([O-])O (stereo not drawn)
Ans. +6%

Qu. Similarly, CC(C)Nc1ccc2c(c1O)C(=O)C1=C(O)C3(O)C(=O)C(C(N)=O)=C(O)C(N(C)C)C3C(O)C1C2C (stereo not drawn) ?
Ans. +8%

----------
# Tested on: PC-3 ML human prostate cancer cells
# Experiment: Membrane Invasion Culture System (MICS) chemo-invasion assay
# Type: cell-based
# Setup conditions: 1 ug/mL; 24 hours; + = increased invasiveness
Entries and their percent inhibition, PC-3 ML (Prostrate)
The answer is to be given in %; state only the numeric part.

Reference set, count: 3
- CC1c2ccc(N)c(O)c2C(=O)C2=C(O)C3(O)C(=O)C(C(N)=O)=C(O)C(N(C)C)C3C(O)C21 (stereo not shown): 20
- CN(C)C1C(O)=C(C(N)=O)C(=O)C2(O)C(O)=C3C(=O)c4c(O)c(Br)cc(Br)c4CC3CC12 (stereo not shown): 8
- CC1c2c(N(NC(=O)OCc3ccccc3)C(=O)OCc3ccccc3)ccc(O)c2C(=O)C2=C(O)C3(O)C(=O)C(C(N)=O)=C(O)C(N(C)C)C3C(O)C21.Cl (stereo not shown): 3

Qu. Consider the compound shown here: CC(C)Nc1ccc2c(c1O)C(=O)C1=C(O)C3(O)C(=O)C(C(N)=O)=C(O)C(N(C)C)C3C(O)C1C2C (stereo not shown) What is its recorded percent inhibition, PC-3 ML (Prostrate)?
Ans. 3

----------
# Test system: Human recombinant MMP1 (Homo sapiens)
# Experiment: MMP1 (Collagenase-1) inhibition, 14C collagen release
# Setup conditions: 35° C., 5 hours; read-out: MMP-1 inhibitory activity, IC50
Property measured: IC50 (µM)
Supply the numeric figure in µM, leaving out any unit text.

Examples with their reported IC50 follow.
- CN(C)c1cc([N+](=O)[O-])c(O)c2c1CC1CC3C(N(C)C)C(O)=C(C(N)=O)C(=O)C3(O)C(O)=C1C2=O (stereo not drawn): 409
- CC(=O)N(CC(C)C)c1ccc(O)c2c1C(C)C1C(=C(O)C3(O)C(=O)C(C(N)=O)=C(O)C(N(C)C)C3C1O)C2=O.O=S(=O)(O)O (stereo not drawn): 895

Qu. What value of measured IC50 is listed for CC1c2ccc([N+](=O)[O-])c(O)c2C(=O)C2=C(O)C3(O)C(=O)C(C(N)=O)=C(O)CC3C(O)C21 (stereo not drawn) ?
Ans. 947

----------
# Test system: Human recombinant MMP3 (Homo sapiens, UniProt P08254)
# Sequence (P08254 100-477): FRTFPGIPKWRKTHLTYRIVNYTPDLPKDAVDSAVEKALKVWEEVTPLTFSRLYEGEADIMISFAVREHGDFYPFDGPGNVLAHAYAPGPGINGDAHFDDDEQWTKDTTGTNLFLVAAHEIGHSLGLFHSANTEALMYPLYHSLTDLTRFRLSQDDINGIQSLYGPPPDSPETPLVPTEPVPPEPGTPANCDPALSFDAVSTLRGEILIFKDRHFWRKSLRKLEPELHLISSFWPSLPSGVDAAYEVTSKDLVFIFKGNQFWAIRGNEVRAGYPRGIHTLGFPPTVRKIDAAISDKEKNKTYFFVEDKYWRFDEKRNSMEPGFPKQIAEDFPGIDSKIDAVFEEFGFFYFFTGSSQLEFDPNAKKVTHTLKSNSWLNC
# Experiment: MMP3 (Stromelysin 1) inhibition, 14C casein release
# Assay type: biochemical
# Setup conditions: 37° C., 16 hours; read-out: MMP-3 inhibitory activity, IC50
Property measured: pIC50
// pIC50: -log10(molar conc.)

Before answering, review these 6 worked examples.
- CC1c2ccc(N)c(O)c2C(=O)C2=C(O)C3(O)C(=O)C(C(N)=O)=C(O)CC3C(O)C21 (stereo not shown): 3.55
- CC(C)Nc1ccc2c(c1O)C(=O)C1=C(O)C3(O)C(=O)C(C(N)=O)=C(O)C(N(C)C)C3C(O)C1C2C (stereo not shown): 3.52
- CC1c2c(N(NC(=O)OCc3ccccc3)C(=O)OCc3ccccc3)ccc(O)c2C(=O)C2=C(O)C3(O)C(=O)C(C(N)=O)=C(O)C(N(C)C)C3C(O)C21.Cl (stereo not shown) [Compound 47, HCl]: 4.17
- CN(C)C1C(O)=C(C(N)=O)C(=O)C2(O)C(O)=C3C(=O)c4c(O)c(Br)cc(Br)c4CC3CC12 (stereo not shown): 3.69
- CC1c2c([N+]#N)cc(C(C)(C)C)c(O)c2C(=O)C2=C(O)C3(O)C(=O)C(C(N)=O)=C(O)CC3C(O)C21 (stereo not shown): 4.32
- CC1c2c(N)cc(C(C)(C)C)c(O)c2C(=O)C2=C(O)C3(O)C(=O)C(C(N)=O)=C(O)CC3C(O)C21.O=S(=O)(O)O (stereo not shown): 3.85

Qu. # input molecule: CC1c2ccc(N=[N+]=[N-])c(O)c2C(=O)C2=C(O)C3(O)C(=O)C(C(N)=O)=C(O)C(N(C)C)C3C(O)C21 (stereo not shown) ; wanted: its pIC50
Ans. 3.62

Qu. CC1c2ccc([N+]#N)c(O)c2C(=O)C2=C(O)C3(O)C(=O)C(C(N)=O)=C(O)C(N(C)C)C3C(O)C21 (stereo not shown) , same question.
Ans. 3.57

Qu. Another molecule: CC1c2c(N(C)C)ccc(O)c2C(=O)C2=C(O)C3(O)C(=O)C(C(N)=O)=C(O)C(N(C)C)C3C(O)C21 (stereo not shown)
Ans. 3.13

Qu. Would you kindly repeat that for CN(C)c1cc([N+](=O)[O-])c(O)c2c1CC1CC3C(N(C)C)C(O)=C(C(N)=O)C(=O)C3(O)C(O)=C1C2=O (stereo not shown) ?
Ans. 3.66

Qu. Entry CC1c2cccc(O)c2C(=O)C2=C(O)C3(O)C(=O)C(C(N)=O)=C(O)C([N+](C)(C)C)C3C(O)C21.[I-] (stereo not shown) please
Ans. 4.38
